Tested Target: Heat shock protein HSP90 (Homo sapiens, UniProt P07900+P08238)
Experiment: Ability to degrade Her2 in MCF7 cells
Assay type: functional, cell-based
# thresholds on IC50 define classes: 0 = under 200 nM, 1 = from 200 nM up to 300 nM, 2 = 300 nM and over

[
  {
    "Molecule Smiles": "CCCn1c(Sc2nc3cccc(Cl)c3s2)nc2c(N)ncnc21",
    "Class Label": 1
  },
  {
    "Molecule Smiles": "CCCCn1c(Sc2nc3ccc(Cl)c(Cl)c3s2)nc2c(N)ncnc21",
    "Class Label": 2
  },
  {
    "Molecule Smiles": "CCCCn1c(Sc2nc3ccccc3s2)nc2c(N)ncnc21",
    "Class Label": 2
  },
  {
    "Molecule Smiles": "CCCCn1c(Sc2nc3cncc(Br)c3s2)nc2c(N)ncnc21",
    "Class Label": 2
  },
  {
    "Molecule Smiles": "CCCCn1c(Sc2nc3cccc(OC)c3s2)nc2c(N)ncnc21",
    "Class Label": 0
  }
]

Band assignment needed for `CCCCn1c(Sc2nc3cccc(Cl)c3s2)nc2c(N)ncnc21` please.
0

Band assignment needed for `Nc1ncnc2c1nc(Sc1nc3cccc(Cl)c3s1)n2CCN1CCOCC1` please.
1

Band assignment needed for `CC(=O)OCCCn1c(Sc2nc3cccc(Cl)c3s2)nc2c(N)ncnc21` please.
0

Band assignment needed for `CC(=O)OCCCn1c(Sc2nc3cncc(Cl)c3s2)nc2c(N)ncnc21` please.
0

Band assignment needed for `CCCCn1c(Sc2nc3ccc(Cl)cc3s2)nc2c(N)ncnc21` please.
2

Band assignment needed for `Nc1ncnc2c1nc(Sc1nc3cccc(Cl)c3s1)n2CCCO` please.
0

Band assignment needed for `CC(C)NCCCn1c(Sc2nc3cccc(Cl)c3s2)nc2c(N)ncnc21` please.
0
